- measurement description: Pharmacokinetics in SD rats in vivo
- condition notes: male, Sprague-Dawley, rat, plasma, 8.58 mg/kg, 8.58 mpk/oral
measured parameter: half-life (h)
Number only, in h; omit the unit.

For the compound shown here, N#Cc1sc(-c2ccc(C(=O)O)c(O)c2)c2c1CCC(F)(F)C2 , give the reported half-life.
2.47

====

- measurement target: CYP3A4-M (Homo sapiens (Human), UniProt P08684)
- Sequence (P08684 whole entry): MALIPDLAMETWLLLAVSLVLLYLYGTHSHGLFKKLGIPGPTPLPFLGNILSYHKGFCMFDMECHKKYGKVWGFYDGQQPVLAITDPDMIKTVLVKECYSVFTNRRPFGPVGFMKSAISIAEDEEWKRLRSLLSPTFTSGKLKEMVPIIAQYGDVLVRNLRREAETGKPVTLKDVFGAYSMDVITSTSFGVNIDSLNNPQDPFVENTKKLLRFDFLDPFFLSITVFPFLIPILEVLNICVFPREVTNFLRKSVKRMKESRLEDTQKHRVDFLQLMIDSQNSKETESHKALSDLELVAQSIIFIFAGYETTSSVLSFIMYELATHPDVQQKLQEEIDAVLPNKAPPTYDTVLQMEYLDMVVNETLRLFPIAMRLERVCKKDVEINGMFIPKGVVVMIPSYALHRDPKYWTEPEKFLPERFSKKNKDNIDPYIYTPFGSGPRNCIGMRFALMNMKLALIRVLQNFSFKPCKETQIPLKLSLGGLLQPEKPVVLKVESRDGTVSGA
- measurement description: Cytochrome P450 isoenzyme inhibition, human liver microsomes
- Assay type: in vitro ADME
- condition notes: read-out: Cytochrome P450 isoenzymes IC50, CYP3A4-M
measured parameter: IC50

Query IC50 on CYP3A4-M (Homo sapiens (Human), UniProt P08684) for N#Cc1sc(-c2ccc(C(=O)O)c(O)c2)c2c1CCC(F)(F)C2
> 50 µM

====

- measurement description: Pharmacokinetics in SD rats in vivo
- condition notes: male, Sprague-Dawley, rat, plasma, 8.58 mg/kg, 8.58 mpk/oral
measured parameter: AUC(0-inf) (µM·h)
Number only, in µM·h; omit the unit.

For the compound shown here, N#Cc1sc(-c2ccc(C(=O)O)c(O)c2)c2c1CCC(F)(F)C2 [Compound of formula (I)] , give the reported AUC(0-inf).
86.6

====

- Tested on: P-gp (human MDR1)
- measurement description: MDR1 membrane permeability test (bidirectional)
- Assay type: in vitro ADME, canine
- condition notes: dog, MDR1-MDCK II, pH 7.4, B-to-A
measured parameter: Papp B→A at […], 2 µM (×10⁻⁶ cm/s)
Number only, in ×10⁻⁶ cm/s; omit the unit.

For the molecule shown here, N#Cc1sc(-c2ccc(C(=O)O)c(O)c2)c2c1CCC(F)(F)C2 , give the reported Papp B→A at […], 2 µM.
6.63

====

- measurement target: CYP2C19 (Homo sapiens (Human))
- Sequence (P33261 whole entry): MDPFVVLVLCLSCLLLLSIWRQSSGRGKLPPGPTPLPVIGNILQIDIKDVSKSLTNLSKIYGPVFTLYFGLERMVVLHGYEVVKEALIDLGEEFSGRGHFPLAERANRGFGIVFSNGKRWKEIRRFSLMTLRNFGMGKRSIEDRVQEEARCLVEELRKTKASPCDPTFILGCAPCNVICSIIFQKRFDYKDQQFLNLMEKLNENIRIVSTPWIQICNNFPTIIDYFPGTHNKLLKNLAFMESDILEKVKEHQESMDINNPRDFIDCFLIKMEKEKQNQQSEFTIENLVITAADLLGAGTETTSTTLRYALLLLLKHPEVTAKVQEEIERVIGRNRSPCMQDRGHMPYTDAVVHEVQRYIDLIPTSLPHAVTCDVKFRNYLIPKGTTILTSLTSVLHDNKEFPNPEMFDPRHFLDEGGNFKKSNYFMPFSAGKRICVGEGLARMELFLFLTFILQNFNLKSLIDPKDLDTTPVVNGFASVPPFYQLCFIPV
- measurement description: Cytochrome P450 isoenzyme inhibition, human liver microsomes
- Type: in vitro ADME
- condition notes: read-out: Cytochrome P450 isoenzymes IC50, CYP2C19
pIC50: −log10 of the molar value.
measured parameter: pIC50

Query pIC50 on CYP2C19 (Homo sapiens (Human)) for N#Cc1sc(-c2ccc(C(=O)O)c(O)c2)c2c1CCC(F)(F)C2
< 4.30

====

- measurement description: Pharmacokinetics in SD rats in vivo
- condition notes: male, Sprague-Dawley, rat, plasma, 2.89 mg/kg, 2.89 mpk/intravenous injection
measured parameter: clearance (mL/min/kg)
Number only, in mL/min/kg; omit the unit.

For the compound shown here, N#Cc1sc(-c2ccc(C(=O)O)c(O)c2)c2c1CCC(F)(F)C2 , give the reported clearance.
3.59

====

- measurement description: Pharmacokinetics in SD rats in vivo
- condition notes: male, Sprague-Dawley, rat, plasma, 2.89 mg/kg, 2.89 mpk/intravenous injection
measured parameter: AUC(0-inf) (µM·h)
Number only, in µM·h; omit the unit.

For the compound shown here, N#Cc1sc(-c2ccc(C(=O)O)c(O)c2)c2c1CCC(F)(F)C2 [Compound of formula (I)] , give the reported AUC(0-inf).
41.8

====

- measurement description: Hepatic metabolic stability (HMS) in rat liver cells
- Type: in vitro ADME
- condition notes: hepatocytes (liver cells) in suspension, read-out: Hepatic intrinsic clearance rates
measured parameter: CLint scaled at 1 µM
State the value, then name its unit.

For the compound shown here, N#Cc1sc(-c2ccc(C(=O)O)c(O)c2)c2c1CCC(F)(F)C2 , give the reported CLint scaled at 1 µM.
11.3 L/h/kg

====

- measurement target: UniProt P10635
- Sequence (P10635 whole entry): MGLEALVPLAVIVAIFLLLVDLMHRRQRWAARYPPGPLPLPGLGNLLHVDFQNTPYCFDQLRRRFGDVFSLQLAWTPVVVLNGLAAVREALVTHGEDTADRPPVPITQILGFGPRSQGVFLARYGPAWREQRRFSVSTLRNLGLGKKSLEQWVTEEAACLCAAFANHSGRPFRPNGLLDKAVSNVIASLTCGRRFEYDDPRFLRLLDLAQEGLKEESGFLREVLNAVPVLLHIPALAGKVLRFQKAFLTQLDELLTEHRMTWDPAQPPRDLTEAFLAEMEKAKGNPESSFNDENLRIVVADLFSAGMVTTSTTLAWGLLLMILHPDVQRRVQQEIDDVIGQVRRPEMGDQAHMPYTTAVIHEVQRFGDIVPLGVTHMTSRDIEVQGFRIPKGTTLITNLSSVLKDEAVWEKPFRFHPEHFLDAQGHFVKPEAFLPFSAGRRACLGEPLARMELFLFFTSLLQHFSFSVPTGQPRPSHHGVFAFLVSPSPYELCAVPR
- measurement description: Cytochrome P450 isoenzyme inhibition, human liver microsomes
- Assay type: in vitro ADME
- condition notes: read-out: Cytochrome P450 isoenzymes IC50, CYP2D6
measured parameter: IC50

Query IC50 on UniProt P10635 for N#Cc1sc(-c2ccc(C(=O)O)c(O)c2)c2c1CCC(F)(F)C2
> 50 µM

Where these numbers come from: patent US20240239763A1
